Assay: Cell viability: resazurin assay
Assay type: cell-based
Details: human, HEp2 cells
EXPERIMENTAL_ENDPOINT: CC50 at 5 days

Guide cases for CC50 at 5 days, answers given:
In [3]: df
Out[3]:
                           molecular_string  experimental_endpoint  result_value
0  Cc1cccc(F)c1NC(=O)c1cc2c(s1)-c1sccc1N(C(=O)c1ccc(NC(=O)c3cc4c(nc3N3CC5(CCOCC5)C3)CCC4)cc1)CC2         CC50 at 5 days     > 13.4 µM
1  COc1cnc(N2CC3(CCOCC3)C2)c(C(=O)Nc2ccc(C(=O)N3CCc4cc(C(=O)Nc5c(F)cccc5F)sc4-c4sccc43)cc2)c1         CC50 at 5 days     > 13.5 µM

Here is another molecule to look at.
Notebook: Cc1cnc(N2CCC3(CCOCC3)CC2)c(C(=O)Nc2ccc(C(=O)N3CCc4cc(C(=O)Nc5c(F)cccc5F)sc4-c4sccc43)cc2)c1 , CC50 at 5 days read as > 13.3 µM

---

Tested on: RSV B Washington strain
Test: RSV B induced CPE in HEp2 cells
Assay type: cell-based
Details: human respiratory syncytial virus, HEp-2, 144 h, 6 days
This listing pairs compounds with measured IC50.
I only need the number, in nM, no unit after it.

>>> print(df.to_string())
                           molecular_string  experimental_endpoint  result_value
0  Cc1cnc(N2CC3(CCOCC3)C2)c(C(=O)Nc2ccc(C(=O)N3CCc4cc(C(=O)Nc5ccccc5)sc4-c4sccc43)cc2)c1                   IC50           137
1  Cc1cnc(N2CCC3(CC2)COC3)c(C(=O)Nc2ccc(C(=O)N3CCc4cc(C(=O)Nc5c(F)cccc5F)sc4-c4sccc43)cc2)c1                   IC50           130

Lab note: measured IC50 of COc1cnc(N2CC3(CCOCC3)C2)c(C(=O)Nc2ccc(C(=O)N3CCc4cc(C(=O)Nc5c(F)cccc5F)sc4-c4sccc43)cc2)c1 was 18

compound Cc1cnc(N2CC3(CCOCC3)C2)c(C(=O)Nc2ccc(C(=O)N3CCc4cc(C(=O)Nc5c(O)cccc5F)sc4-c4sccc43)cc2)c1 , IC50 observed: 86

IC50 recorded for this compound, O=C(Nc1c(F)cccc1F)c1cc2c(s1)-c1sccc1N(C(=O)c1ccc(NC(=O)c3cccnc3N3CC4(CCOCC4)C3)cc1F)CC2 , is 97

The recorded IC50 for entry [2H]c1c([2H])c(C(=O)N2CCc3cc(C(=O)Nc4c(F)cccc4F)sc3-c3sccc32)c([2H])c([2H])c1NC(=O)c1cc(C)cnc1N1CC2(CCOCC2)C1 equals 14

Field IC50 (entry COc1ccc(C(=O)Nc2ccc(C(=O)N3CCc4cc(C(=O)Nc5c(F)cccc5F)sc4-c4sccc43)cc2)c(N2CC3(CCOCC3)C2)n1 ) reads 159

IC50 measured on Cc1cnc(N2CC3(CCOCC3)C2)c(C(=O)Nc2ccc(C(=O)N3CCc4cc(C(=O)Nc5c(F)cccc5Cl)sc4-c4sccc43)cc2)c1 = 3.1

Documented IC50 of O=C(Nc1c(F)cccc1F)c1cc2c(s1)-c1sccc1N(C(=O)c1ccc(NC(=O)c3cccnc3N3CCC4(CC3)COC4)cc1)CC2 : 490

---

System: RSV B Washington strain
Experiment: RSV B induced CPE in HEp2 cells
Type: cell-based
Details: human respiratory syncytial virus, HEp-2, 144 h, 6 days
EXPERIMENTAL_ENDPOINT: pIC50
Please keep in mind that pIC50 is minus log10 of the molar concentration; only the number is needed.

Before answering, review these 3 worked examples.
                           molecular_string  result_value
0  Cc1cccc(F)c1NC(=O)c1cc2c(s1)-c1sccc1N(C(=O)c1ccc(NC(=O)c3cc4c(nc3N3CC5(CCOCC5)C3)CCC4)cc1)CC2          7.96
1  Cc1cnc(N2CC3(CCOCC3)C2)c(C(=O)Nc2ccc(C(=O)N3CCc4cc(C(=O)Nc5c(Cl)cccc5Cl)sc4-c4sccc43)cc2)c1          8.92
2  COc1cccc(F)c1NC(=O)c1cc2c(s1)-c1sccc1N(C(=O)c1ccc(NC(=O)c3cc(C)cnc3N3CC4(CCOCC4)C3)cc1)CC2          7.49

Field pIC50 (RSV B Washington strain), entry Cc1cnc(N2CC3(CCOCC3)C2)c(C(=O)Nc2ccc(C(=O)N3CCc4cc(C(=O)Nc5c(F)cccc5Cl)sc4-c4sccc43)c(F)c2)c1 : 7.54

Known value: RSV B Washington strain pIC50 of the compound Cc1cccc(F)c1NC(=O)c1cc2c(s1)-c1sccc1N(C(=O)c1ccc(NC(=O)c3cc4c(nc3N3CC5(CCOCC5)C3)CCOC4)cc1)CC2 equals 7.77

---

Listed here are compounds together with their documented CC50 at 5 days.
Experiment: Cell viability: resazurin assay
Type: cell-based
Conditions: human, HEp2 cells

A selection of reference data follows.
>>> df
                           molecular_string  experimental_endpoint  result_value
0  Cc1ccc(C(=O)Nc2ccc(C(=O)N3CCc4cc(C(=O)Nc5c(F)cccc5F)sc4-c4sccc43)c(F)c2)c(N2CC3(CCOCC3)C2)n1         CC50 at 5 days     > 13.4 µM
1  [2H]c1c([2H])c(C(=O)N2CCc3cc(C(=O)Nc4c(F)cccc4F)sc3-c3sccc32)c([2H])c([2H])c1NC(=O)c1cc(C)cnc1N1CC2(CCOCC2)C1         CC50 at 5 days     > 13.7 µM
2  COc1cccc(F)c1NC(=O)c1cc2c(s1)-c1sccc1N(C(=O)c1ccc(NC(=O)c3cc(C)cnc3N3CC4(CCOCC4)C3)cc1)CC2         CC50 at 5 days     > 13.6 µM

Memo: Cc1cnc(N2CCC3(CC2)COC3)c(C(=O)Nc2ccc(C(=O)N3CCc4cc(C(=O)Nc5c(F)cccc5F)sc4-c4sccc43)cc2)c1 , reported CC50 at 5 days: > 13.8 µM

Short answer for Cc1cc(C(=O)Nc2ccc(C(=O)N3CCc4cc(C(=O)Nc5c(F)cccc5F)sc4-c4sccc43)cc2)c(N2CC3(CCOCC3)C2)nc1C : CC50 at 5 days was > 13.5 µM

Query O=C(Nc1c(F)cccc1F)c1cc2c(s1)-c1sccc1N(C(=O)c1ccc(NC(=O)c3cccnc3N3CC4(CCOCC4)C3)cc1)CC2 yields CC50 at 5 days of > 14 µM

---

Listing of entries alongside the reported pIC50.
Test system: RSV B Washington strain
Test: RSV B induced CPE in HEp2 cells
Type: cell-based
Conditions: human respiratory syncytial virus, HEp-2, 144 h, 6 days
Kindly note that pIC50 refers to -log10 of the concentration in mol/L and answer with the value alone.

                           molecular_string  experimental_endpoint  result_value
0  O=C(Nc1c(F)cccc1F)c1cc2c(s1)-c1sccc1N(C(=O)c1ccc(NC(=O)c3cccnc3N3CC4(COC4)C3)cc1)CC2                  pIC50          5.98

For the next question, use this compound.
Item Cc1cnc(N2CC3(CCOCC3)C2)c(C(=O)Nc2ccc(C(=O)N3CCc4cc(C(=O)Nc5c(F)cccc5F)sc4-c4sccc43)cc2)c1 was tested on RSV B Washington strain; the reported pIC50 is 8.05

---

Listed below: inhibition at 0.01 µg/mL values for each entry.
Tested on: RSV A2 strain
Experiment: RSV A2 induced CPE in HEp2 cells
Type: cell-based
Settings: human respiratory syncytial virus, HEp-2, at 0.01 μg/mL
Could you give me the number in %? Just the number is fine.

In the examples that follow, each entry is paired with its recorded inhibition at 0.01 µg/mL.
>>> print(df.to_string())
                           molecular_string     experimental_endpoint  quantity_unit  result_value
0  O=C(Nc1c(F)cccc1F)c1cc2c(s1)-c1sccc1N(C(=O)c1ccc(NC(=O)c3cc4sccc4nc3N3CC4(CCOCC4)C3)cc1F)CC2  inhibition at 0.01 µg/mL              %            89
1  Cc1cnc(N2CC3(CCOCC3)C2)c(C(=O)Nc2ccc(C(=O)N3CCc4cc(C(=O)Nc5c(F)cccc5Cl)sc4-c4sccc43)cc2)c1  inhibition at 0.01 µg/mL              %            84
2  Cc1cnc(N2CC3(CCOCC3)C2)c(C(=O)Nc2ccc(C(=O)N3CCc4cc(C(=O)Nc5c(O)cccc5F)sc4-c4sccc43)cc2)c1  inhibition at 0.01 µg/mL              %           100
3  Cc1cnc(N2CC3(CCOCC3)C2)c(C(=O)Nc2ccc(C(=O)N3CCc4cc(C(=O)Nc5c(C)cccc5F)sc4-c4sccc43)cc2)c1  inhibition at 0.01 µg/mL              %           100
4  Cc1cc(C(=O)Nc2ccc(C(=O)N3CCc4cc(C(=O)Nc5c(F)cccc5F)sc4-c4sccc43)cc2)c(N2CC3(CCOCC3)C2)nc1C  inhibition at 0.01 µg/mL              %            96

Looking up COc1ccc(C(=O)Nc2ccc(C(=O)N3CCc4cc(C(=O)Nc5c(F)cccc5F)sc4-c4sccc43)cc2)c(N2CC3(CCOCC3)C2)n1 , I see its inhibition at 0.01 µg/mL listed as 94

Given item Cc1cccc(F)c1NC(=O)c1cc2c(s1)-c1sccc1N(C(=O)c1ccc(NC(=O)c3cc4c(nc3N3CC5(CCOCC5)C3)CCOC4)cc1)CC2 , the value recorded as its inhibition at 0.01 µg/mL is 98

What the record says about O=C(Nc1c(F)cccc1F)c1cc2c(s1)-c1sccc1N(C(=O)c1ccc(NC(=O)c3cccnc3N3CCC4(CCOCC4)CC3)cc1)CC2 : inhibition at 0.01 µg/mL is 100

Please fill in: inhibition at 0.01 µg/mL reported for Cc1cnc(N2CC3(CCOCC3)C2)c(C(=O)Nc2ccc(C(=O)N3CCc4cc(C(=O)Nc5c(F)cccc5Cl)sc4-c4sccc43)c(F)c2)c1 = 93

inhibition at 0.01 µg/mL in this record for COc1cnc(N2CC3(CCOCC3)C2)c(C(=O)Nc2ccc(C(=O)N3CCc4cc(C(=O)Nc5c(F)cccc5F)sc4-c4sccc43)cc2)c1 : 100

Given item O=C(Nc1c(F)cccc1F)c1cc2c(s1)-c1sccc1N(C(=O)c1ccc(NC(=O)c3cccnc3N3CC4(COC4)C3)cc1)CC2 , the value recorded as its inhibition at 0.01 µg/mL is 62

For reference, reported inhibition at 0.01 µg/mL for O=C(Nc1c(F)cccc1F)c1cc2c(s1)-c1sccc1N(C(=O)c1ccc(NC(=O)c3cccnc3N3CC4(CCOCC4)C3)cc1F)CC2 stands at 87
